- System: Es-2
- experiment: Primary qHTS to identify gynecologic anti-cancer compounds using libraries of approved drugs and bioactive compounds (AID 1345084); also: potency is read from the fitted curve at half-maximal effect; nearly all actives have a fitted effect of over 55% in size
- measurementContext: Gynecologic cancer cell panel viability, ATPlite luminescence, 48 h; series mostly up to 57.5 µM
Results filed as inconclusive are left out. Activity calls are given as the source filed them. Calls follow the shape of the dose curve; as a rule, active = well fitted cell-killing curve with a large enough effect; inconclusive = small, poorly fitted or top-dose-only effect, or effect the other way; inactive = flat fitted curve, though single readings scatter.
Could you please report measured Potency for the items listed next?

Which Potency reading was recorded for the compound CN1Cc2c(ccc3c2OCO3)[C@@H]2[C@H]1c1cc3c(cc1C[C@@H]2O)OCO3 ? 4.47 µM (active)

Also CC(=O)OC[C@]12C[C@H](OC(=O)CC(C)C)C(C)=C[C@H]1O[C@@H]1[C@H](O)[C@@H](OC(C)=O)[C@@]2(C)[C@@]12CO2 ? 0.1 µM (active)

Also CC(=O)O[C@@H]1[C@@H](O)[C@H]2O[C@@H]3C=C(C)[C@@H](O)C[C@]3(CO)[C@]1(C)[C@]21CO1 ? 2 µM (active)

###

- measuredTarget: Nuclear receptor subfamily 1 group I member 3 (Homo sapiens) (UniProt Q14994)
- Sequence (Q14994 whole entry, looked up): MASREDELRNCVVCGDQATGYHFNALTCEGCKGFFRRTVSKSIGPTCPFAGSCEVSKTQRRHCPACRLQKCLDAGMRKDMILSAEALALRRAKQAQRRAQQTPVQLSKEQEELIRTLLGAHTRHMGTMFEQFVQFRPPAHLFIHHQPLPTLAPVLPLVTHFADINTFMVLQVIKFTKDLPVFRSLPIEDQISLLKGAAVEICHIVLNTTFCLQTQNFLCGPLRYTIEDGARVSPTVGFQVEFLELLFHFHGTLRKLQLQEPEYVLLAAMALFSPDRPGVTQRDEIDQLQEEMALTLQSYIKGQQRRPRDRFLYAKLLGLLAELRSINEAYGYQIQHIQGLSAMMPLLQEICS
- experiment: Primary qHTS for antagonist of constitutive androstane receptor (CAR) against the NCATS DSHEA and TCM libraries (AID 1794836);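 also: HepG2 cells stably expressing hCAR with CYP2B6 luciferase reporter stimulated by CITCO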
- measurementContext: CAR reporter cell assay, antagonist mode, luciferase; series mostly up to 40 µM
Results filed as inconclusive are left out. The source made the active and inactive calls. Calls follow the shape of the dose curve; as a rule, active = well fitted curve in the direction sought with a large enough effect; inconclusive = small, poorly fitted or top-dose-only effect, or another doubt; inactive = no such curve, though single readings can be large or run the other way.
reportedEndpoint: outcome

Some solved cases for reference:
>  <compound>
O=c1c(-c2ccc(O)cc2)coc2cc(O[C@@H]3O[C@H](CO)[C@H](O)[C@H](O)[C@H]3O)ccc12

>  <outcome>
inactive

$$$$
>  <compound>
O=c1cc(-c2ccc(O)cc2)oc2cc(O)cc(O)c12

>  <outcome>
inactive

$$$$
>  <compound>
C=C(C)[C@@H]1CC[C@]2(C(=O)O)CC[C@]3(C)[C@H](CC[C@@H]4[C@@]5(C)CC[C@H](O)C(C)(C)[C@@H]5CC[C@]43C)[C@@H]12

>  <outcome>
inactive

$$$$
>  <compound>
O=C(/C=C/c1ccc(O)c(O)c1)OC(Cc1ccc(O)c(O)c1)C(=O)O (configuration not stated)

>  <outcome>
inactive

$$$$
>  <compound>
C[N+](C)(C)CCO

>  <outcome>
inactive

$$$$
>  <compound>
C=C/C(C)=C/C/C=C(\C)CCC=C(C)C

>  <outcome>
inactive

$$$$
>  <compound>
CC(=O)O[C@@H]1C[C@@H](C)[C@](O)(CCC2=CC(=O)OC2)[C@@]2(C)CCCC(C)(C)C12 (some centres not stated)

>  <outcome>
inactive

$$$$
>  <compound>
CCCCCCCCCCCCCC(=O)OCC(O)CO (configuration not stated)

>  <outcome>
inactive

$$$$

Which outcome reading was recorded for the compound Cc1ncc(C[n+]2csc(CCO)c2C)c(N)n1 ? inactive

Also CC(=O)C1=C(O)C=C2Oc3c(C(C)=O)c(O)c(C)c(O)c3[C@]2(C)C1=O ? inactive

Also Cc1cc2nc3c(=O)[nH]c(=O)nc-3n(CC(O)C(O)C(O)CO)c2cc1C (configuration not stated) ? inactive

Also CC(C)=CCC(O)/C(C)=C/CO[C@@H]1O[C@H](CO)[C@@H](O)[C@H](O)[C@H]1O (some centres not stated) ? inactive

###

- Test system: HEK293
- experiment: Cytotoxic Profiling of Annotated Libraries Using Quantitative High-Throughput Screening (AID 1296008); also: potency is read from the fitted curve at half-maximal effect; nearly all actives have a fitted effect of over 60% in size
- measurementContext: Five cell lines viability, CellTiter-Glo ATP luminescence, 48-72 h
Results filed as inconclusive are left out. Activity calls are given as the source filed them. Calls follow the shape of the dose curve; as a rule, active = well fitted inhibition curve with a large enough effect; inconclusive = small, poorly fitted or top-dose-only effect; inactive = flat fitted curve, though single readings scatter. *1 amine or outer side, *2 acyl side, *3 side chain or, on linkers, in order; H or OH if unused. Where a SMILES comes first, the peptide text is derived from it. [ ]: non-standard residue; d: D form. X7 = O=C([C@@H](CC(O)CCl)O[*:1])[*:2]; aIle = CC[C@@H](C)[C@H](N)C(=O)O; NMeV = CN[C@H](C(=O)O)C(C)C; NMeA = CN[C@@H](C)C(=O)O; βAla = NCCC(=O)O
Could you please report measured Potency for the items listed next?

Which Potency reading was recorded for the compound COc1cccc(NCC(F)Cn2c3ccc(Br)cc3c3cc(Br)ccc32)c1 (stereo unspecified) ? 13 µM (active)

Also CC[C@@H](C)[C@@H]1NC(=O)[C@@H]2CCCN2C(=O)[C@@H](CC(O)CCl)OC(=O)CCNC(=O)[C@H](C)N(C)C(=O)[C@H](C(C)C)N(C)C1=O (stereo partly specified) (cyclo([NMeA][βAla][X7]P[aIle][NMeV])) ? 0.685 µM (active)

Also CC(C)=CCC[C@]1(C)C=Cc2c(O)c3c(c(CC=C(C)C)c2O1)O[C@]12C(=C[C@@H]4CC1C(C)(C)O[C@@]2(C/C=C(/C)C(=O)O)C4=O)C3=O ? 0.731 µM (active)

Also C[C@]12CC[C@H](O[C@@H]3O[C@H](CO)[C@@H](O)[C@H](O)[C@H]3O[C@@H]3O[C@H](CO)[C@@H](O)[C@H](O)[C@H]3O)CC1=CC[C@@H]1[C@@H]2CC[C@]2(C)[C@@H](C3=CC(=O)OC3)CC[C@]12O ? 6.11 µM (active)

Also COC1CC(O[C@H]2CC[C@]3(C)C4CC[C@]5(C)[C@@H](C6=CC(=O)OC6)[C@@H](OC(C)=O)C[C@]5(O)C4CC[C@@H]3C2)OC(C)C1O[C@@H]1O[C@H](CO)[C@@H](O)[C@H](O)[C@H]1O (stereo partly specified) ? 0.485 µM (active)

Also CCOC(=O)c1ccc(-c2ccc(OC(=O)N(C)Cc3cccc(-c4ccncc4)c3)cc2)cc1 ? 9.2 µM (active)
